src = the supplement of paper PMC10567573

- EXPERIMENT: protein stability index of a GFP-peptide fusion (GPS, HEK-293T) (PSI 1-6); higher = more stable;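 further: 24-mer peptide tiles fused after GFP, lentivirally expressed, FACS-sorted into six equal bins by GFP/DsRed ratio, decoded by Illumina sequencing, PSI is the read-weighted mean bin number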
- MEASUREMENT_CONTEXT: treatment: DMSO; c terminus: a fixed tail appended
Listed next: entries and their corresponding protein stability index.
Answer with a number only.

Worked examples follow.
CHAIN: GTVHCQIVSTQITRPSGNNGNRRR [PHTF1]
protein stability index: 4.25
--
CHAIN: AAGELESMGFSARYNFTPDPDFKD [NETO1]
protein stability index: 4.71
--
CHAIN: GTELIQTPLASSTDHQTPPTSPVQ [HDAC6]
protein stability index: 5.11

Fill in: protein stability index of SIHCLGPIKLELLEPKANLQAALQ [VPS39] is ___ 2.61

Entry SLFSQALKDEEAKVLQLTVRCEAL [CCDC89] please 2.8

Entry KPTVFIGVPQIWEKIHEMVKKNSA [ACSBG2] please 2.75

Entry KSKAELQSEERKRIDELIESGKEE [KMT5A] please 5.59

Entry TDPGDVPAFLKWLSLASLLVYVAA [SLC2A12] please 2.37

Entry IELEGISVMVMREILDYIFSGQIR [GAN] please 3.37

###

- EXPERIMENT: protein stability index of a GFP-peptide fusion (GPS, HEK-293T) (PSI 1-6); higher = more stable
- MEASUREMENT_CONTEXT: treatment: MLN4924 1 uM, 8 h; c terminus: a fixed tail appended
Assign class by protein stability index: not lower than 3 means MET; lower than 3 means NOT MET.

Recorded results for 3 sequences are shown here.
CHAIN: FDTLATVGTGTFGRVHLVKEKTAK [PRKX]
LABEL: MET

CHAIN: GGTVKLADFGLARIYSYQMALTPV [CDK4]
LABEL: NOT MET

CHAIN: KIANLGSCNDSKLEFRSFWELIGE [S100A14]
LABEL: NOT MET

protein stability index >= 3 for YKSVLQAVQKTDEGHPFKAYLELE [RTN1] ? MET

Entry ATYLRCQLLLIKALQEKLWNVAAP [INTS4] please NOT MET

Entry SINALLQAEVLSRQITSPVSGING [HNF4A] please NOT MET

###

- EXPERIMENT: protein stability index of a GFP-peptide fusion (GPS, HEK-293T) (PSI 1-6); higher = more stable
- MEASUREMENT_CONTEXT: treatment: MLN4924 1 uM, 8 h; c terminus: a fixed tail appended
Listed next: entries and their corresponding protein stability index.
Answer with a number only.

CHAIN: NSFGAILQGSLFGLAGLLPASYTA [SLC29A1]
protein stability index: 2.9

Now examine the next entry.
Fill in: protein stability index of RASPTRTAPLPMPEGPEPAAPGKQ [ELOA2] is ___ 5.66

###

- EXPERIMENT: protein stability index of a GFP-peptide fusion (GPS, HEK-293T) (PSI 1-6); higher = more stable
- MEASUREMENT_CONTEXT: treatment: DMSO; c terminus: a fixed tail appended
PARAMETER: protein stability index
Answer with a number only.

Worked examples follow.
CHAIN: PLLKDEGFAVKALWGRTQEEAEEL [GFOD1]
protein stability index: 5
//
CHAIN: IERANNVKYGLAATVWSSNVGRVH [ALDH8A1]
protein stability index: 2.66

Fill in: protein stability index of TDFFKNIMNFIDIVAIIPYFITLG [KCNA1] is ___ 3.22

Entry PKTVQQPTESEPVTINIQDLLSCS [MATN2] please 4.35

Entry SFRQGMHLTRHQRTHTGEKPYKCT [ZNF263] please 3.57

Entry MYYRGSAAAIIVYDITKEETFSTL [RAB22A] please 2.75

Entry SESSLEMDDERYFNEMSAQGLRPR [CCDC6] please 4.78

Entry LTCVICLNYLVDPVTICCGHSFCR [TRIM43] please 2.83

Entry PFREQSFLCAAGDAGEESRVQVLK [TIAF1] please 4.54

Entry RIYSYQMALTPVVVTLWYRAPEVL [CDK4] please 2.98

Entry PPTVSQTPVIAATPVPTITANVTS [BRD3] please 4.83

Entry EFPADISSITEAVPSESEPPALQN [NFE2L1] please 5.31

Entry SELRTKVQEQQKQLQDQDQKLLEQ [FBXO28] please 5.5

Entry DAILYYYQSGGRLKRPVNVPFDIF [KCNA4] please 2.58

Entry NEWRMVASMSKRRCGVGVSVLDDL [KLHL20] please 2.27

Entry GMVTRCIIEVLSNALSKSSAPPIT [CHGB] please 3.07

Entry LARKIASRNEFDRTIAETEAAYLK [SSNA1] please 3.57

Entry MFRSKRSGLVRRLWRSRVVPDREE [SMAD6] please 2.67

Entry KKQDENEGIKVEDLLFIVDTMLEE [CEP70] please 3.25

Entry CMVGYDMGATRCDFTLSKTNMARI [CPXM2] please 2.24

Entry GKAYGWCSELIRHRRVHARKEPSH [ZNF232] please 3.23

###

- EXPERIMENT: protein stability index of a GFP-peptide fusion (GPS, HEK-293T) (PSI 1-6); higher = more stable
- MEASUREMENT_CONTEXT: treatment: MLN4924 1 uM, 8 h; c terminus: a fixed tail appended
Assign class by protein stability index: not lower than 3 means met; lower than 3 means not met.

Recorded results for 5 sequences are shown here.
CHAIN: DRYIAICNPLRYSVLMGHGVCMGL [OR10K2]
LABEL: not met
//
CHAIN: VAQLEDRRSTTDLRGTQFDYERGK [ZSWIM9]
LABEL: met
//
CHAIN: DLAALKQRLEEETRKREDAEHNLV [PRPH]
LABEL: met
//
CHAIN: KAMFSGRVEVLTDAGGWVLIDRSG [KCTD13]
LABEL: not met
//
CHAIN: QYPGNYEQQQILIRQLQEQHYQQY [ACBD3]
LABEL: met

protein stability index >= 3 for PQELINYVQTVDFMRTDNTCVNLL [KLHL13] ? not met

Entry VDWDEEYPPQMGEEYSQIIYSTKL [BTBD10] please met

###

- EXPERIMENT: protein stability index of a GFP-peptide fusion (GPS, HEK-293T) (PSI 1-6); higher = more stable
- MEASUREMENT_CONTEXT: treatment: DMSO; c terminus: a fixed tail appended
PARAMETER: protein stability index

Worked examples follow.
CHAIN: MDYKSSLIQDGNPMENLEKQLICP [TRIM63]
RESULT: 4.06

CHAIN: CAFVGALGGAAFLGTAIFIEADRR [SPNS1]
RESULT: 2.8

CHAIN: MALKTSLGSVQFMEQFCWPHLRSF
RESULT: 3.01

CHAIN: SQRAMLLQGTESLNRATQSIERSH [VTI1B]
RESULT: 4.27

CHAIN: VRILLRRGVDVSLQGKDAWLPLHY [RIPK4]
RESULT: 2.99

CHAIN: ARHLREYQELLNVKMALDIEIATY [PRPH]
RESULT: 2.34

CHAIN: GNATLLRIIYQNKCMRNGPNALIA [EDNRA]
RESULT: 2.66

CHAIN: VAVLKGEQEKEAQHKDQTAALPLA [MAP2]
RESULT: 5.28

CHAIN: VADMMYFCQMLAVVETINAAIGVT [HACD3]
RESULT: 3.06

CHAIN: EDQKLQVLLTQIESKKHQVETAFE [TRIM15]
RESULT: 4.29

Fill in: protein stability index of LPIFTPAKMGATKEEREDTPIQLQ [TCAP] is ___ 4.7

Entry RLPGGGWTLRRTKELRKDYQGPGT [DYRK1B] please 3.14

Entry GGDGDDMEIFMEEMREIRRKLREL [BEX3] please 3.13

Entry CGPPSLGAVLALVAIFIMSLNKRH [MFSD9] please 3.3

Entry EIFVDCDINREQLNDIFHLLKSHT [TPH1] please 2.19

###

- EXPERIMENT: protein stability index of a GFP-peptide fusion (GPS, HEK-293T) (PSI 1-6); higher = more stable
- MEASUREMENT_CONTEXT: treatment: MLN4924 1 uM, 8 h; c terminus: a fixed tail appended
PARAMETER: protein stability index
Answer with a number only.

Worked examples follow.
CHAIN: KRAFKIKDFANTIPGHGGIMDRFD [CDS2]
NUMERIC_RESULT: 2.91

CHAIN: HLYAEPQKSPWCEARSLEHTLPVN [ESR2]
NUMERIC_RESULT: 3.38

Fill in: protein stability index of YRQKLLMFLEISSYYDPGRLICDF [VPS39] is ___ 2.7

Entry AAHRLARRLYHLEGFQRCDVARQL [PSD2] please 2.46

Entry RVDFEEFVELIGPKLREETAHMLG [CABP4] please 2.73

Entry RKGELVTASKAIIEKEYQPHVIVS [ADD1] please 3.97

Entry PPARGPRMSYGGSTCHAYSNTRDR [RBMY1A1] please 4.07

Entry HYANLNGLYGSTVDHQGVSWYHWK [TNXB] please 2.8

Entry VAIAQKFAALRASLVAPLLLELAG [MYORG] please 2.68
